System: Escherichia coli
Assay: Antimicrobial activity against oqxAB positive Escherichia coli DH5[alpha] harboring pMD18-T::oqxAB by CLSI agar dilution method
Type: functional

# structureNotation, MIC, µg/mL
rows = [
    ("CC(=O)c1c(C)[n+]([O-])c2ccccc2[n+]1[O-]", 64),
    ("CN(C)[C@@H]1C(O)=C(C(N)=O)C(=O)[C@@]2(O)C(O)=C3C(=O)c4c(O)cccc4[C@@](C)(O)[C@H]3C[C@@H]12", 4),
    ("CCN1CCN(c2cc3c(cc2F)c(=O)c(C(=O)O)cn3C2CC2)CC1", 0.125),
    ("O=C(N[C@H](CO)[C@H](O)c1ccc([N+](=O)[O-])cc1)C(Cl)Cl", 64),
    ("CCn1cc(C(=O)O)c(=O)c2ccc(C)nc21", 32),
    ("CS(=O)(=O)c1ccc([C@@H](O)[C@@H](CF)NC(=O)C(Cl)Cl)cc1", 16),
    ("CCn1cc(C(=O)O)c(=O)c2cc(F)c(N3CCNCC3)cc21", 0.25),
    ("CN[C@@H]1[C@H](O[C@H]2[C@H](O[C@H]3[C@H](O)[C@@H](O)[C@H](N=C(N)N)[C@@H](O)[C@@H]3N=C(N)N)O[C@@H](C)[C@]2(O)C=O)O[C@@H](CO)[C@H](O)[C@H]1O", 2),
    ("Cc1c(C(=O)NCCO)[n+]([O-])c2ccccc2[n+]1[O-]", 128),
]
